These entries and their values trace back to paper PMC3569853.

Target: κ-opioid receptor (hKOR-CHO cells) (Homo sapiens, UniProt P41145)
Sequence (P41145 whole entry): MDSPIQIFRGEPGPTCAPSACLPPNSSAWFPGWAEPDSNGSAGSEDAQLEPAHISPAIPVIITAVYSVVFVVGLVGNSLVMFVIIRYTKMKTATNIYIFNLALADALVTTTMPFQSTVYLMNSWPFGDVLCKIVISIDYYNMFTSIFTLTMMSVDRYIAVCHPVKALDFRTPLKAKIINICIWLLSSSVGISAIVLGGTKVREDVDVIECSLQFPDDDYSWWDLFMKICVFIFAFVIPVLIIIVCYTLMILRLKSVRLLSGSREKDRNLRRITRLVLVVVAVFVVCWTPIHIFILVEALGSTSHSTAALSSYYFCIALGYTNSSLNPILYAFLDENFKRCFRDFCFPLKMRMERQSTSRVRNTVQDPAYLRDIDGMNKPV
Assay: Opioid receptor binding assay, κ
Conditions: selectivity ratio Ki κ / Ki μ
Decide by κ/μ: equal to or exceeding 40 means Y, less means N.

Oc1cccc2c1CCC1C3CCCC21CCN3CCc1ccccc1 (stereo not drawn) : Y
Oc1ccc2c(c1)C13CCCC(C1C=C2)N(CCc1ccccc1)CC3 (stereo not drawn) : N
Oc1cccc2c1C=CC1C3CCCC21CCN3CCc1ccccc1 (stereo not drawn) : N
CN1CCC23CCCC1C2C=Cc1c(O)cccc13 (stereo not drawn) : Y

Test whether the compound CN1CCC23CCCC1C2C=Cc1ccc(O)cc13 (stereo not drawn) records κ/μ of 40 or higher. Y

For this compound, is measured κ/μ 40 or higher? Oc1ccc2c(c1)C13CCCC(C1CC2)N(CCc1ccccc1)CC3 (stereo not drawn) N

----------
Molecular target: δ-opioid receptor (hDOR-CHO cells) (Homo sapiens, UniProt P41143)
Sequence (P41143 whole entry): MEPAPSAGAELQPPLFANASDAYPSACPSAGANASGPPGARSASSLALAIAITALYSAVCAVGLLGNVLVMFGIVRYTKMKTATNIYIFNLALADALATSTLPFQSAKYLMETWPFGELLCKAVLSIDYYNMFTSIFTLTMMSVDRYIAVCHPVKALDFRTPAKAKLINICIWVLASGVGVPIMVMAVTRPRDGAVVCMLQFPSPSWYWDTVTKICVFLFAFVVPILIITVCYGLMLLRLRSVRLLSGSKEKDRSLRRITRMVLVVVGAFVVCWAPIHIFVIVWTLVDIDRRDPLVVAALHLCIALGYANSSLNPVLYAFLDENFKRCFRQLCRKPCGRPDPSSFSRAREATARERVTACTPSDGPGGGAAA
Test: Opioid receptor binding assay, δ
resultType: pKi
Answers are plain numbers, as −log10 of the molar value.

Below: 3 compounds and their reported pKi.
Oc1ccc2c(c1)C13CCCC(C1CC2)N(CCc1ccccc1)CC3 (stereo not drawn) : 6.73
Oc1cccc2c1C=CC1C3CCCC21CCN3CCc1ccccc1 (stereo not drawn) : 5.74
Oc1cccc2c1CCC1C3CCCC21CCN3CCc1ccccc1 (stereo not drawn) : 5.55

Response field pKi (δ-opioid receptor (hDOR-CHO cells) (Homo sapiens, UniProt P41143)) for item Oc1ccc2c(c1)C13CCCC(C1C=C2)N(CCc1ccccc1)CC3 (stereo not drawn) : 6.90

----------
Exercise: for every item that follows, state its recorded pKi.
Target: κ-opioid receptor (hKOR-CHO cells) (Homo sapiens)
Assay: Opioid receptor binding assay, κ
Conditions: Ki κ, [3H]-U69,593, CHO hKOR cells, full binding assay, ±SD
Answers are plain numbers, as −log10 of the molar value.

Oc1ccc2c(c1)C13CCCC(C1CC2)N(CCc1ccccc1)CC3 (stereo not drawn) [Compound 24] : 7.21
CN1CCC23CCCC1C2C=Cc1ccc(O)cc13 (stereo not drawn) [Compound 20] : 5.39
Oc1cccc2c1CCC1C3CCCC21CCN3CCc1ccccc1 (stereo not drawn) [Compound 17] : 6.06
Oc1cccc2c1C=CC1C3CCCC21CCN3CCc1ccccc1 (stereo not drawn) [Compound 16] : 6.43
Oc1ccc2c(c1)C13CCCC(C1C=C2)N(CCc1ccccc1)CC3 (stereo not drawn) [Compound 23] : 7.29

Now for the compound whose pKi we want.
Looking up CN1CCC23CCCC1C2C=Cc1c(O)cccc13 (stereo not drawn) [Compound 14] , I see its pKi listed as 5.41

----------
What Kb was measured for each of the following?
Biological target: μ-opioid receptor (hMOR-CHO cells) (Homo sapiens)
Sequence (P35372 whole entry): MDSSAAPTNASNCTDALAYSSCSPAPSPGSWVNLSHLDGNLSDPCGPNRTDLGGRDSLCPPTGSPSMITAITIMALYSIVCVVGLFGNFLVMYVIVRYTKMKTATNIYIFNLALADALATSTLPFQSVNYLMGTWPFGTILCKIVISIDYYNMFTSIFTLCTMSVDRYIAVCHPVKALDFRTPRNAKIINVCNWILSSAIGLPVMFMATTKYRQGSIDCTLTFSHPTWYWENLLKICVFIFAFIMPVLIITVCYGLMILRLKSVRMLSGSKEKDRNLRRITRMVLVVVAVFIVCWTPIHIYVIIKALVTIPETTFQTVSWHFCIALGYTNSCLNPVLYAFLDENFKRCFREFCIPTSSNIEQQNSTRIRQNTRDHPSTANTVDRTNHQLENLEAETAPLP
Assay: biochemical
Give bare numbers, in nM.

Worked examples, 3 compounds total:
Oc1ccc2c(c1)C13CCCC(C1C=C2)N(CCc1ccccc1)CC3 (stereo not shown) [Compound 23] : 0.34
Oc1cccc2c1C=CC1C3CCCC21CCN3CCc1ccccc1 (stereo not shown) [Compound 16] : 1.7
Oc1cccc2c1CCC1C3CCCC21CCN3CCc1ccccc1 (stereo not shown) [Compound 17] : 7

Measured Kb of Oc1ccc2c(c1)C13CCCC(C1CC2)N(CCc1ccccc1)CC3 (stereo not shown) [Compound 24] : 0.71

----------
Target: δ-opioid receptor (hDOR-CHO cells) (Homo sapiens)
Experiment: Opioid receptor binding assay, δ
Details: selectivity ratio Ki δ / Ki μ
Field: δ~ μ. Provide a value for each of the molecules that follow.
Numbers only.

Oc1ccc2c(c1)C13CCCC(C1C=C2)N(CCc1ccccc1)CC3 (stereo not drawn) : 49
Oc1cccc2c1C=CC1C3CCCC21CCN3CCc1ccccc1 (stereo not drawn) : 97
Oc1cccc2c1CCC1C3CCCC21CCN3CCc1ccccc1 (stereo not drawn) : 135
CN1CCC23CCCC1C2C=Cc1ccc(O)cc13 (stereo not drawn) : 175
Oc1ccc2c(c1)C13CCCC(C1CC2)N(CCc1ccccc1)CC3 (stereo not drawn) : 81

// moving on: another record for δ~ μ
GET /values?item= CN1CCC23CCCC1C2C=Cc1c(O)cccc13 (stereo not drawn) &system= δ-opioid receptor (hDOR-CHO cells) (Homo sapiens) returns δ~ μ: 149
